System: 786-0
Experiment: NCI tumour cell line growth inhibition, 48 h
Active and inactive are the calls of the source. Cut-off read from the data, not from the text of the source: active = GI50 up to about 1.1 µM and inactive = higher.
Outcome codes: Y = active, N = inactive

[
  {
    "COMPOUND": "CS(=O)(=O)OCCCSCCSCCCOS(C)(=O)=O",
    "ASSIGNED_LABEL": "N"
  },
  {
    "COMPOUND": "COC(=O)c1c([N+](=O)[O-])ncn1[C@H]1OC[C@@H](OC(C)=O)[C@@H](OC(C)=O)[C@@H]1OC(C)=O",
    "ASSIGNED_LABEL": "N"
  },
  {
    "COMPOUND": "COc1cc(/C=C\\c2ccc(SC)cc2)cc(OC)c1OC",
    "ASSIGNED_LABEL": "Y"
  },
  {
    "COMPOUND": "COc1ccc(C2(O)c3ccccc3C(=O)N(C)C2(O)c2ccc(OC)cc2)cc1 (stereo not given)",
    "ASSIGNED_LABEL": "N"
  },
  {
    "COMPOUND": "CC(=N\\N=C\\c1ccccn1)/C(C)=N/N=C(C)/C(C)=N/N=C(C)/C(C)=N/N=C/c1ccccn1",
    "ASSIGNED_LABEL": "N"
  }
]

---

System: HOP-18
Assay: NCI tumour cell line growth inhibition, 48 h
Activity calls are given as the source filed them. Rule as the data show it: active = GI50 up to about 1.1 µM and inactive = higher.
Collected GI50 values appear next to each entry.

[
  {
    "COMPOUND": "CCSc1nc2sc(C)c(C)c2c(=O)n1-c1ccc(C(=O)O)cc1",
    "GI50": "10.2 µM (inactive)"
  },
  {
    "COMPOUND": "CN1CCN(C)C12C=c1ccccc1=CC21CC1",
    "GI50": "> 75 µM (inactive)"
  },
  {
    "COMPOUND": "CC(C)(C)c1cc(COc2c3sc(=S)sc3c(OCc3cc(C(C)(C)C)cc(C(C)(C)C)c3)c3sc(=S)sc23)cc(C(C)(C)C)c1",
    "GI50": "> 100 µM (inactive)"
  },
  {
    "COMPOUND": "CC1=C(C(=O)Nc2ccc(C)cc2)C(c2cccc([N+](=O)[O-])c2)C(C(=O)Nc2ccc(C)cc2)=C(C)N1",
    "GI50": "14.1 µM (inactive)"
  },
  {
    "COMPOUND": "COc1c2c(cc3nc4ccccc4nc13)CCC(C(C)(C)O)C2 (stereo not drawn)",
    "GI50": "86.5 µM (inactive)"
  },
  {
    "COMPOUND": "CC(=O)C1C(=O)C(=O)N(c2ccccc2N2C(=O)C(=O)C(C(C)=O)C2=O)C1=O (stereo not drawn)",
    "GI50": "> 100 µM (inactive)"
  },
  {
    "COMPOUND": "Cc1nc2c(ccc3ncccc32)[nH]1",
    "GI50": "> 100 µM (inactive)"
  },
  {
    "COMPOUND": "CCOC(=O)C(=O)Nc1ccc(Cl)c(C(F)(F)F)c1",
    "GI50": "> 100 µM (inactive)"
  },
  {
    "COMPOUND": "O=C(c1ccccc1)N1C2CCC1C(C(F)(F)F)=C2C(F)(F)F",
    "GI50": "> 100 µM (inactive)"
  },
  {
    "COMPOUND": "CCCCCCCCSC(=O)NCCCC",
    "GI50": "94.6 µM (inactive)"
  },
  {
    "COMPOUND": "Nc1ccc(N)c2c1C(=O)c1c(N)ccc(N)c1C2=O",
    "GI50": "16.3 µM (inactive)"
  },
  {
    "COMPOUND": "COc1cc(C2=NN(C)C(c3ccc([N+](=O)[O-])o3)C2)cc(OC)c1OC (stereo not drawn)",
    "GI50": "> 100 µM (inactive)"
  },
  {
    "COMPOUND": "CCCCCCc1cc(C(=O)Nc2cccc(C(F)(F)F)c2)nc(N)n1",
    "GI50": "> 100 µM (inactive)"
  }
]

Values from ChEMBL document CHEMBL1201862
